The origin of these recorded values is patent US20090227619A1.

# System: PLA-801
# Test name: In vitro cytotoxicity, IC50 by MTT method, PLA-801
# Format: cell-based
# Protocol conditions: PLA-801 cell strain; read-out: IC50 PLA-801
Value kind: IC50 (µM)
Field: numeric (µM). Do not append units.

Sample answers from the record:
IC50 lookup needed for Cc1nc(C(=O)O)cc2c3ccccc3n(CC(=O)c3ccccc3)c12 , thanks.
2000

Consider next the compound CCOC(=O)c1cc2c3ccccc3n(CC)c2c(C)n1 in the same way.
160

Consider the additional compound presented here.
IC50 lookup needed for CCOC(=O)c1cc2c3ccccc3n(C)c2c(C)n1 , thanks.
140

---

# Test system: Lewis lung cancer
# Protocol conditions: Lewis lung cancer; Dosage 100, ip × 10qd; first time
Threshold-based label: Body weight of the animals, beginning, First time under 20 g gives t, Body weight of the animals, beginning, First time not under 20 g gives f.

Body weight of the animals, beginning, First time under 20 g? Item: COC(=O)c1cc2c([nH]c3ccccc32)c(-c2ccccc2)n1 [Compound 14]
f

More entries:
Body weight of the animals, beginning, First time under 20 g? Item: CCCCn1c2ccccc2c2cc(C(=O)O)ncc21 [Compound 36, 9-butyl-β-carboline-3-carboxylic acid]
t

Consider next the compound CCOC(=O)Nc1cc2c3ccccc3n(Cc3ccccc3)c2cn1 [Compound 55] in the same way.
t

Consider next the compound O=C(O)c1cc2c(cn1)[nH]c1ccccc12 [Compound 17, β-carboline-3-carboxylic acid] in the same way.
t

---

Entries and their measured IC50 follow.
# Test system: HepG2
# Test name: In vitro cytotoxicity, IC50 by MTT method, HepG2
# Format: cell-based, human
# Protocol conditions: Homo sapiens; HepG2 cell strain; read-out: IC50 HepG2
Field: numeric (µM). Do not append units.

IC50 lookup needed for CCOC(=O)c1cc2c3ccccc3n(CCCc3ccccc3)c2c(C)n1 , thanks.
40

Consider next the compound CCCCOC(=O)c1cc2c3ccccc3n(CC)c2cn1 [Compound 39, butyl 9-ethyl-β-carboline-3-carboxylate] in the same way.
70

Consider next the compound Cc1nc(C(=O)O)cc2c3ccccc3n(C)c12 in the same way.
1380

More entries:
IC50 lookup needed for c1ccc(Cn2c3ccccc3c3ccncc32)cc1 , thanks.
110

---

# Tested on: Lewis lung cancer;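 also: mice implanted subcutaneously in the axilla with Lewis lung tumor cells, treated starting the following day, killed roughly three weeks after implantation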
# Protocol conditions: Lewis lung cancer; Dosage 50 (mg/ml), ip × 10qd; first time
Entries and their measured Body weight of the animals, end, First time follow.
Field: numeric (g). Do not append units.

Body weight of the animals, end, First time lookup needed for OCc1cc2c3ccccc3n(Cc3ccccc3)c2cn1 [Compound 42, 9-benzyl-3-hydroxymethyl-β-carboline] , thanks.
24.7

Consider next the molecule CCOC(=O)c1cc2c3ccccc3n(CC)c2cn1 [Compound 31, ethyl 9-ethyl-β-carboline-3-carboxylate] in the same way.
24.3

Consider next the molecule COC(=O)c1cc2c([nH]c3ccccc32)c(-c2ccc(OC)cc2)n1 in the same way.
23.9

More entries:
Body weight of the animals, end, First time lookup needed for COC(=O)c1cc2c([nH]c3ccccc32)c(-c2ccccc2)n1 , thanks.
23.8

Consider next the molecule c1ccc(Cn2c3ccccc3c3ccncc32)cc1 in the same way.
24.1

---

# System: Kunming mice;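 also: acute toxicity in Kunming mice grouped by sex, one intraperitoneal dose at five graded levels in Tween-80 plus 0.5% CMC-Na, deaths monitored over two weeks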
# Protocol conditions: female mice, 240 mg/kg, single i.p.
Entries and their measured Death rate follow.
No unit in the answer, only the number.

Sample answers from the record:
Death rate lookup needed for O=C(O)c1cc2c3ccccc3n(Cc3ccccc3)c2cn1 , thanks.
100

Consider next the compound OCc1cc2c3ccccc3n(Cc3ccccc3)c2cn1 [Compound 42, 9-benzyl-3-hydroxymethyl-β-carboline] in the same way.
60

Consider next the compound CCCCn1c2ccccc2c2cc(C(=O)O)ncc21 in the same way.
0

More entries:
Death rate lookup needed for CCOC(=O)c1cc2c3ccccc3n(Cc3ccccc3)c2cn1 [Compound 33, ethyl 9-benzyl-β-carboline-3-carboxylate] , thanks.
60

---

# Test system: PLA-801
# Test name: In vitro cytotoxicity, IC50 by MTT method, PLA-801
# Assay type: cell-based
# Protocol conditions: PLA-801, MTT; read-out: IC50
Entries and their measured IC50 follow.
Field: numeric (µM). Do not append units.

Sample answers from the record:
Param readout = IC50; param system = PLA-801; param query = COC(=O)Nc1cc2c(cn1)[nH]c1ccccc12 [Compound 22, 3-[(methoxycarbonyl)amino]-β-carboline] ; response: value
200

Consider next the compound COc1ccc2c3ccnc(C)c3n(CCCc3ccccc3)c2c1 in the same way.
50

Consider next the compound CCCCn1c2cc(OC)ccc2c2ccnc(C)c21 in the same way.
110

Consider next the compound Nc1cc2c(cn1)[nH]c1ccccc12 in the same way.
570

Consider the additional compound presented here.
Param readout = IC50; param system = PLA-801; param query = COc1ccc2c3ccnc(C)c3n(CCO)c2c1 ; response: value
80

---

# System: HepG2
# Test name: In vitro cytotoxicity, IC50 by MTT method, HepG2
# Type: cell-based, human
# Protocol conditions: Homo sapiens; HepG2 cell strain; read-out: IC50 HepG2
Value kind: pIC50
Keep in mind that pIC50 stands for -log10 of concentration in molar terms.

Sample answers from the record:
pIC50 lookup needed for CCOC(=O)c1cc2c3ccccc3n(C)c2c(C)n1 , thanks.
4.00

Consider next the molecule CCOC(=O)c1cc2c3ccccc3n(Cc3ccccc3)c2cn1 [Compound 33, ethyl 9-benzyl-β-carboline-3-carboxylate] in the same way.
4.10

Consider next the molecule CCCc1nc(C(=O)O)cc2c3ccccc3n(CC)c12 in the same way.
3.27

Consider next the molecule Cn1c2ccccc2c2cc(C(=O)O)nc(-c3ccccc3)c21 in the same way.
3.80

Consider next the molecule Cc1nc(C(=O)O)cc2c3ccccc3n(Cc3ccccc3)c12 in the same way.
3.55

More entries:
pIC50 lookup needed for CCCc1nc(C(=O)OCC)cc2c3ccccc3n(Cc3ccccc3)c12 , thanks.
3.10

Consider next the molecule CCOC(=O)c1cc2c3ccccc3n(CC)c2cn1 [Compound 31, ethyl 9-ethyl-β-carboline-3-carboxylate] in the same way.
3.96

Consider next the molecule CCCc1nc(C(=O)O)cc2c3ccccc3n(CCCc3ccccc3)c12 in the same way.
3.89

---

# System: BGC-823
# Test name: In vitro cytotoxicity, IC50 by MTT method, BGC-823
# Assay type: cell-based
# Protocol conditions: Homo sapiens, BGC-823; BGC823 cell strain; read-out: IC50 BGC823
Entries and their measured pIC50 follow.
Keep in mind that pIC50 stands for -log10 of concentration in molar terms.

pIC50 lookup needed for CCOC(=O)c1cc2c3ccccc3n(Cc3ccccc3)c2c(C)n1 , thanks.
2.68

Consider next the compound O=C(O)c1cc2c3ccccc3n(CCCc3ccccc3)c2cn1 in the same way.
4.52

Consider next the compound c1ccc(Cn2c3ccccc3c3ccncc32)cc1 in the same way.
4.15

Consider next the compound CCn1c2ccccc2c2cc(C(=O)OC)ncc21 [Compound 27, methyl 9-ethyl-β-carboline-3-carboxylate] in the same way.
3.60

More entries:
pIC50 lookup needed for CCCc1nc(C(=O)O)cc2c3ccccc3n(Cc3ccccc3)c12 , thanks.
3.57

Consider next the compound Cn1c2ccccc2c2cc(C(=O)O)ncc21 in the same way.
3.89

Consider next the compound Cc1nc(C(=O)O)cc2c3ccccc3n(Cc3ccccc3)c12 in the same way.
3.55

Consider next the compound CCCCOC(=O)c1cc2c3ccccc3n(CCCC)c2cn1 [Compound 40, butyl 9-butyl-β-carboline-3-carboxylate] in the same way.
4.15

Consider next the compound CCCc1nc(C(=O)O)cc2c3ccccc3n(CC)c12 in the same way.
3.41

---

Entries and their measured melting point follow.

melting point lookup needed for CCCc1nc(C(=O)OCC)cc2c3ccccc3n(CC)c12 , thanks.
86 to 87 °C

Consider next the compound COC(=O)c1cc2c3ccccc3n(C)c2c(-c2ccccc2)n1 in the same way.
205 to 207 °C

Consider next the compound CCn1c2ccccc2c2cc(C(=O)O)nc(C)c21 in the same way.
243 to 245 °C

Consider next the compound CCCc1nc(C(=O)O)cc2c3ccccc3n(C)c12 in the same way.
181 to 183 °C

More entries:
melting point lookup needed for CCn1c2ccccc2c2cc(NC(=O)OC)ncc21 , thanks.
213 to 214 °C

Consider next the compound CCOC(=O)c1cc2c3ccccc3n(C)c2c(C)n1 in the same way.
141 to 142 °C

---

# Tested on: S180 sarcoma
# Protocol conditions: S180 sarcoma; Dosage 100 (mg/ml), ip × 10qd; first time
Entries and their measured Weight of the tumor X ± SD, First time follow.
Field: numeric (g). Do not append units.

Sample answers from the record:
Weight of the tumor X ± SD, First time lookup needed for CCOC(=O)Nc1cc2c3ccccc3n(Cc3ccccc3)c2cn1 [Compound 55] , thanks.
2.02

Consider next the compound CCOC(=O)c1cc2c3ccccc3n(CC)c2cn1 [Compound 31, ethyl 9-ethyl-β-carboline-3-carboxylate] in the same way.
1.65

Consider next the compound O=C(O)c1cc2c3ccccc3n(CCCc3ccccc3)c2cn1 [Compound 48] in the same way.
1.84

Consider the additional compound presented here.
Weight of the tumor X ± SD, First time lookup needed for CCOC(=O)c1cc2c3ccccc3n(Cc3ccccc3)c2cn1 [Compound 33, ethyl 9-benzyl-β-carboline-3-carboxylate] , thanks.
1.53
